The reported measurements were obtained from the supplement of paper PMC11061612.

Please provide measured combination Emax for the entries that follow.
Test system: CaR-1 (Colorectal Carcinoma)
TEST METHOD NOTES: combination Emax (second highest fraction inhibited in the dose matrix, 72 h); higher = more inhibition; extreme values may be limits of the assay
Numbers only.

[
  {
    "COMPOUND": "CCc1c2c(nc3ccc(O)cc13)-c1cc3c(c(=O)n1C2)COC(=O)[C@]3(O)CC [SN-38] + O=C(c1cc(Cc2n[nH]c(=O)c3ccccc23)ccc1F)N1CCN(C(=O)C2CC2)CC1 [Olaparib] (first compound max 0.3 µM, 7x7, partner max 10 µM)",
    "EXPERIMENTAL ENDPOINT": "combination Emax",
    "TEST VALUE": 0.912
  },
  {
    "COMPOUND": "CCN(CCO)CCCOc1ccc2c(Nc3cc(CC(=O)Nc4cccc(F)c4)[nH]n3)ncnc2c1 [AZD2811] + O=C(c1cc(Cc2n[nH]c(=O)c3ccccc23)ccc1F)N1CCN(C(=O)C2CC2)CC1 [Olaparib] (first compound max 1 µM, 7x7, partner max 10 µM)",
    "EXPERIMENTAL ENDPOINT": "combination Emax",
    "TEST VALUE": 0.19
  },
  {
    "COMPOUND": "Cc1nc(Nc2ncc(C(=O)Nc3c(C)cccc3Cl)s2)cc(N2CCN(CCO)CC2)n1 [Dasatinib] + CC(=O)Nc1cccc(-n2c(=O)n(C3CC3)c(=O)c3c(Nc4ccc(I)cc4F)n(C)c(=O)c(C)c32)c1 [Trametinib] (first compound max 2 µM, 7x7, partner max 1 µM)",
    "EXPERIMENTAL ENDPOINT": "combination Emax",
    "TEST VALUE": 0.57
  },
  {
    "COMPOUND": "Cc1c2c(nn1C)CSCc1cc(n(C)n1)CSc1cc(c3ccccc3c1)OCCCc1c(C(=O)O)n(C)c3c-2c(Cl)ccc13 [AZD5991] + C1CN(CCC1(C(=O)N[C@@H](CCO)C2=CC=C(C=C2)Cl)N)C3=NC=NC4=C3C=CN4 [Capivasertib] (first compound max 1 µM, 7x7, partner max 3 µM)",
    "EXPERIMENTAL ENDPOINT": "combination Emax",
    "TEST VALUE": 0.223
  }
]

Turning now to a further compound:
Reported combination Emax for Cc1c2c(nn1C)CSCc1cc(n(C)n1)CSc1cc(c3ccccc3c1)OCCCc1c(C(=O)O)n(C)c3c-2c(Cl)ccc13 [AZD5991] + C=CCn1c(=O)c2cnc(Nc3ccc(N4CCN(C)CC4)cc3)nc2n1-c1cccc(C(C)(C)O)n1 [AZD1775] (first compound max 1 µM, partner max 1 µM) was 0.283
